# Test system: Caupolican (Caup) homeodomain DNA-binding domain
# Sequence: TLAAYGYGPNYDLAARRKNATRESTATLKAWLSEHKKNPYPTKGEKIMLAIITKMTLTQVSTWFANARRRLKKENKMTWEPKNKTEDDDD
# Method: PBM E-score (8-mer, recovered from the published 9-mer minima) (E-score (dimensionless, -0.5 to 0.5)); higher = stronger relative binding preference, active = 0.31 or more
The full list was thinned out, with hits kept by preference. No count for the full screen is at hand.
Below: a set of entries, each annotated with reported PBM E-score.
When you answer, write just the number.

| Biopolymer Sequence | Measurement Label | Experimental Value |
| --- | --- | --- |
| AAAAGCCT | PBM E-score | -0.0858 |
| GCATAACA | PBM E-score | 0.255 |
| AACACATC | PBM E-score | 0.202 |

Exercise: Given the sequence "AGAGGATA" , write its reported PBM E-score.
Key: 0.0175

Exercise: Given the sequence "GTATAAGA" , write its reported PBM E-score.
Key: 0.112

----------
# Tested on: Caupolican (Caup) homeodomain DNA-binding domain
# Sequence: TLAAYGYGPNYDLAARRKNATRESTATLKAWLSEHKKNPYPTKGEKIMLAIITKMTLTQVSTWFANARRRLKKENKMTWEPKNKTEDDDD
# Method: PBM E-score (8-mer, recovered from the published 9-mer minima) (E-score (dimensionless, -0.5 to 0.5)); higher = stronger relative binding preference, active = 0.31 or more
The full list was thinned out, with hits kept by preference. The true hit rate is not given.
Mark Satisfied for reported PBM E-score of 0.3 or greater; mark Not satisfied for anything smaller.

Example entries begin here.
| Biopolymer Sequence | Label Value |
| --- | --- |
| AAAGTACA | Not satisfied |
| CAAGTACA | Satisfied |
| ATAACATG | Satisfied |
| TATTAACA | Satisfied |

Proceed to the following item.
Exercise: Please indicate if the recorded PBM E-score for "ACCTTGTA" meets or exceeds 0.3.
Key: Satisfied

----------
# Test system: Caupolican (Caup) homeodomain DNA-binding domain
# Sequence: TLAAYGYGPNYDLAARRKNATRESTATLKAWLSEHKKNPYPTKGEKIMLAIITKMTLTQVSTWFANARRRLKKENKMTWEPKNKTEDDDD
# Method: PBM E-score (8-mer, recovered from the published 9-mer minima) (E-score (dimensionless, -0.5 to 0.5)); higher = stronger relative binding preference, active = 0.31 or more
Shown is part of a subset that was picked to be rich in hits. How many sequences the whole screen found active is unknown.
Hello, when you answer, please use one of the following outcomes: active, inactive

| Biopolymer Sequence | Label Value |
| --- | --- |
| CAAGAGAG | inactive |
| CTGTACAC | inactive |
| ACAAGAAT | inactive |
| ATCATGGA | inactive |
| GTGACAAC | inactive |
| AACATGGA | active |
| ATGACAAC | active |
| TAACACAA | active |
| GTACACGA | active |
| ATGTACAC | active |

Exercise: # fetch the recorded call for "ATTGTTTC" here
Key: inactive

Exercise: # fetch the recorded call for "GATATGAC" here
Key: inactive

Exercise: # fetch the recorded call for "CTGTACAG" here
Key: inactive

Exercise: # fetch the recorded call for "ATCGTTCG" here
Key: inactive

Exercise: # fetch the recorded call for "GAAATAAA" here
Key: inactive

Exercise: # fetch the recorded call for "GGGTACAC" here
Key: inactive

Exercise: # fetch the recorded call for "GAACACAC" here
Key: inactive

Exercise: # fetch the recorded call for "CTGACAAA" here
Key: inactive

Exercise: # fetch the recorded call for "CAACACAA" here
Key: inactive

Exercise: # fetch the recorded call for "ATGACAAA" here
Key: inactive

Exercise: # fetch the recorded call for "CACATGGA" here
Key: inactive

Exercise: # fetch the recorded call for "CTTCCAGC" here
Key: inactive

Exercise: # fetch the recorded call for "GTATAAAA" here
Key: inactive

Exercise: # fetch the recorded call for "AACATGGT" here
Key: active

----------
# System: Caupolican (Caup) homeodomain DNA-binding domain
# Sequence: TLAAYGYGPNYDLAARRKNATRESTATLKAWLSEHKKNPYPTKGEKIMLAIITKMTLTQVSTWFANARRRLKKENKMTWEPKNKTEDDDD
# Method: PBM E-score (8-mer, recovered from the published 9-mer minima) (E-score (dimensionless, -0.5 to 0.5)); higher = stronger relative binding preference, active = 0.31 or more
This is one part of a sample in which hits are shown more often than they occur. The true hit rate is not given.
Hello, when you answer, please use one of the following outcomes: True (active), False (inactive)

Example entries begin here.
| Biopolymer Sequence | Target Of Assay | Label Value |
| --- | --- | --- |
| GTTGTCAA | Caupolican (Caup) homeodomain DNA-binding domain | True |
| ATTGTCCA | Caupolican (Caup) homeodomain DNA-binding domain | False |

Proceed to the following item.
Exercise: # fetch the recorded call for "ATTGTCAA" here
Key: False

----------
# Test system: Caupolican (Caup) homeodomain DNA-binding domain
# Sequence: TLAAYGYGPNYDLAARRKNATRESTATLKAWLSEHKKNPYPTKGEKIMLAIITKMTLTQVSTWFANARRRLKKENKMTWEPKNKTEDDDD
# Method: PBM E-score (8-mer, recovered from the published 9-mer minima) (E-score (dimensionless, -0.5 to 0.5)); higher = stronger relative binding preference, active = 0.31 or more
Shown is part of a subset that was picked to be rich in hits. The true hit rate is not given.
Hello, when you answer, please use one of the following outcomes: true = active, false = inactive

Example entries begin here.
| Biopolymer Sequence | Target Of Assay | Label Value |
| --- | --- | --- |
| ATAACACA | Caupolican (Caup) homeodomain DNA-binding domain | false |
| ATAACAAG | Caupolican (Caup) homeodomain DNA-binding domain | true |
| CTAACACA | Caupolican (Caup) homeodomain DNA-binding domain | false |

Exercise: # fetch the recorded call for "ACGTCGAG" here
Key: false

Exercise: # fetch the recorded call for "GTAACAAA" here
Key: false

Exercise: # fetch the recorded call for "GATGTACC" here
Key: true

Exercise: # fetch the recorded call for "ATAACAAA" here
Key: false

Exercise: # fetch the recorded call for "ATACAACA" here
Key: true

Exercise: # fetch the recorded call for "CGATGTAG" here
Key: false

Exercise: # fetch the recorded call for "GTTAAGGA" here
Key: false

Exercise: # fetch the recorded call for "ATGTCGCA" here
Key: true

Exercise: # fetch the recorded call for "ACCAGGGC" here
Key: false

Exercise: # fetch the recorded call for "CTGGTAAC" here
Key: false

Exercise: # fetch the recorded call for "CCTCCAAC" here
Key: false

Exercise: # fetch the recorded call for "GTTAGTGA" here
Key: false

Exercise: # fetch the recorded call for "CTATTGGA" here
Key: false

Exercise: # fetch the recorded call for "CTGTCGTA" here
Key: false

Exercise: # fetch the recorded call for "AACCTATT" here
Key: false

Exercise: # fetch the recorded call for "ATACAACC" here
Key: false

Exercise: # fetch the recorded call for "TAGCGGGA" here
Key: false

Exercise: # fetch the recorded call for "GTTCAACA" here
Key: false

Exercise: # fetch the recorded call for "GCATGAGA" here
Key: false

Exercise: # fetch the recorded call for "GGATGTAC" here
Key: false

----------
Below: a set of entries, each annotated with reported PBM E-score.
# System: Caupolican (Caup) homeodomain DNA-binding domain
# Sequence: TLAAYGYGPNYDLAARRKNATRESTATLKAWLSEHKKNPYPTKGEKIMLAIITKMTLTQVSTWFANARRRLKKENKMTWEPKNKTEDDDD
# Method: PBM E-score (8-mer, recovered from the published 9-mer minima) (E-score (dimensionless, -0.5 to 0.5)); higher = stronger relative binding preference, active = 0.31 or more
Only a selection was taken, and hits are over-represented in it overall. The hit rate among all sequences tested is not known here.

In the examples that follow, each entry is paired with its recorded PBM E-score.
| Biopolymer Sequence | PBM E-score |
| --- | --- |
| GAACACGA | 0.32 (active) |
| ACATATTC | 0.329 (active) |
| CATGTTTA | 0.399 (active) |

Exercise: Given the sequence "TGACTGAA" , write its reported PBM E-score.
Key: -0.0626 (inactive)

Exercise: Given the sequence "ATATGTAG" , write its reported PBM E-score.
Key: 0.297 (inactive)

Exercise: Given the sequence "CTTCCGGA" , write its reported PBM E-score.
Key: -0.173 (inactive)

----------
# System: Caupolican (Caup) homeodomain DNA-binding domain
# Sequence: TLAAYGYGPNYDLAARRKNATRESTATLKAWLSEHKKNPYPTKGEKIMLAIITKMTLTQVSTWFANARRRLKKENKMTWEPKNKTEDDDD
# Method: PBM E-score (8-mer, recovered from the published 9-mer minima) (E-score (dimensionless, -0.5 to 0.5)); Drosophila protein; higher = stronger relative binding preference, active = 0.31 or more
Only a selection was taken, and hits are over-represented in it overall. The true hit rate is not given.
Hello, when you answer, please use one of the following outcomes: active, inactive

Example entries begin here.
| Biopolymer Sequence | Label Value |
| --- | --- |
| GCGTGTTA | inactive |
| CCGTGTTC | active |
| CGGTGTTA | inactive |
| CTTGTCCA | inactive |
| ACGTGTGG | inactive |

Proceed to the following item.
Exercise: # fetch the recorded call for "ACGTGTTG" here
Key: active

FYI, the data here is from the supplement of paper PMC3724861.
